# assayDetails: In vitro clearance in human liver microsomes
# Format: ADME
# assayContext: read-out: CLH
quantity: CLint scaled (mL/min/kg)
Numbers only, in mL/min/kg.

Working through the 4 molecules below one at a time, give CLint scaled for each.
1. CCCC(C)CN1CCC(c2ccc(C(=O)N(C)C)cc2)(c2cccc(O)c2)CC1 (centres undefined)
2. CCCC(C)CN1CCC(c2cccc(C(N)=O)c2)(c2ncc(C(=O)N(CC)CC)cn2)CC1 (centres undefined)
3. CCCC(C)CN1CCC(c2cccc(O)c2)(c2ncc(C(=O)N(CC)CC)cn2)CC1 (centres undefined)
4. CCC[C@@H](C)CN1CCC(c2cccc(O)c2)(c2ncc(C(=O)N(CC)CC)cn2)CC1

Completion:
[80, 13, 40, 48]
